- Test system: PD1-ss+10aa/Gaussia Luciferase
- assay name: Dox-Induced PD1-ss-Gluc Assay
- Assay type: cell-based
- condition info: 24 hr doxycycline induction, 293FRT/TO cells, Gaussia luciferase signal; read-out: 24 hr Dox Inducible PD1ssGluc 293FRT/TO: Mean IC50
quantity measured: IC50 (nM)

a: O=C(Nc1nc(CCc2ccccc2)cs1)c1cccn1Cc1ccncc1
b: O=C(Nc1nc([C@@H]2CCC[C@@H](c3ccccc3)C2)cs1)c1cccn1Cc1ccncc1
Between these two entries, a and b , state which has the higher IC50. Label of pick, please.
b

1: O=C(Nc1nc([C@H]2CCC[C@@H](c3ccccc3)C2)cs1)c1cccn1Cc1ccncc1
2: CC(OC(C)(C)c1csc(NC(=O)c2cccn2Cc2ccncc2)n1)c1ccccc1Cl (stereo not shown)
Which item exceeds the other in IC50, 1 or 2 ? Write down the label of the entry you select.
1

a: CC(C)OC(C)(C)c1csc(NC(=O)c2cccn2Cc2ccc(S(C)(=O)=O)cc2)n1
b: O=C(Nc1nc(/C=C/c2ccc(N3CCCCC3)cc2)cs1)c1cccn1Cc1ccncc1
c: CCS(=O)(=O)N1CCN(Cc2csc(NC(=O)c3cccn3Cc3ccncc3)n2)CC1
d: O=C(Nc1nc(C2CCc3ccccc3O2)cs1)c1cccn1CCCc1ccncc1 (stereo not shown)
e: O=C(Nc1nc([C@@H]2CCN(c3ccccc3)C2)cs1)c1cccn1Cc1ccncc1
I would appreciate it if you could sort these 5 compounds by IC50, starting from the smallest number. Provide your answer as the labels ordered per the instruction.
b, e, d, a, c
(b: 56 nM, e: 201 nM, d: 1280 nM, a: 6340 nM, c: 15700 nM)

a: O=C(Nc1nc(/C=C/c2ccc(C(F)(F)F)cc2)cs1)c1cccn1Cc1ccncc1
b: O=C(Nc1nc(N2CCCC(c3ccccc3)C2)cs1)c1cccn1Cc1ccncc1 (stereo not shown)
Field: entry with larger IC50 (options a / b ). When you have decided, please share the label of that item.
b
(b: 9060 nM, a: 48 nM)

1: COc1cccc(C(C)OC(C)(C)c2csc(NC(=O)c3cccn3Cc3ccncc3)n2)c1 (stereo not shown)
2: O=C(Nc1nc2c(s1)CCCC2)c1cccn1Cc1ccncc1
Between 1 and 2 , whose measured IC50 reads higher? Bench note: the answer is the label of the chosen record.
2
(2: 1360 nM, 1: 38 nM)

P: CC(C)OC(C)(C)c1csc(NC(=O)c2cccn2CCCc2ccncc2)n1
Q: CC(C)(C)c1csc(NC(=O)c2cccn2Cc2ccncc2Cl)n1
Which of the two items, P and Q , has the greater recorded IC50? Your answer should be the label attached to the chosen record.
Q

a: O=C(Nc1nc(C#Cc2ccccc2)cs1)c1cccn1Cc1ccncc1
b: CCc1nc(NC(=O)c2cccn2Cc2ccncc2Cl)sc1C
c: CC(C)OC(C)(C)c1csc(NC(=O)c2cccn2[C@H](C)c2ccncc2)n1
d: CCc1cnccc1Cn1cccc1C(=O)Nc1nc(C(C)(C)OC(C)C)cs1
e: CC(C)OC(C)(C)c1csc(NC(=O)c2cccn2CC2CNC(=O)C2)n1 (stereo not shown)
Order the items by recorded IC50; the first position goes to the largest value. Would you mind listing the labels in the order requested?
e, d, b, c, a
(e: 13200 nM, d: 5280 nM, b: 1840 nM, c: 1210 nM, a: 150 nM)

I: CCc1nc(NC(=O)c2cccn2Cc2ccncc2)sc1C
II: CC(C)OC(C)(C)c1csc(NC(=O)c2cccn2CCc2ccncc2)n1
III: CC(C)(OCc1ccccc1)c1csc(NC(=O)c2cccn2Cc2ccncc2)n1
IV: O=C(Nc1nc([C@H]2CCN(Cc3ccccc3)C2)cs1)c1cccn1Cc1ccncc1
Please produce an ascending ranking of these compounds based on IC50. Please list the labels in the order you were asked to rank them.
III, I, IV, II
(III: 104 nM, I: 633 nM, IV: 1140 nM, II: 11900 nM)

---

- System: IL-2-FL/Gaussia Luciferase
- assay name: Dox Induced IL2-FL-Gluc Assay
- Type: cell-based
- condition info: 24 hr doxycycline induction, 293FRT/TO cells, Gaussia luciferase signal; read-out: 24 hr Dox Inducible IL2FLGIuc 293FRT/TO: Mean IC50
quantity measured: IC50 (nM)

1: O=C(Nc1nc([C@H]2CCN(c3ccccc3)C2)cs1)c1cccn1Cc1ccncc1
2: O=C(Nc1nc(CCc2ccccc2)cs1)c1cccn1Cc1ccncc1
3: O=C(Nc1nc2ccsc2s1)c1cccn1Cc1ccncc1
4: O=C(Nc1nc(N2CCCC(c3ccccc3)C2)cs1)c1cccn1Cc1ccncc1 (stereo not drawn)
Task field, ranking: reported IC50, descending order. # answer = labels listed in requested order
4, 3, 1, 2
(4: 7300 nM, 3: 2690 nM, 1: 1400 nM, 2: 648 nM)

---

- System: IL-2-FL/Gaussia Luciferase
- assay name: Dox Induced IL2-FL-Gluc Assay
- Type: cell-based
- condition info: 24 hr, doxycycline-induced, 293FRT/TO cells; read-out: 24 hr Dox Inducible IL2FLGIuc 293FRT/TO: Mean IC50
quantity measured: IC50 (nM)

molecule	u	IC50
COc1cnc(/C=C/c2csc(NC(=O)c3cccn3Cc3ccncc3)n2)c(F)c1 [Compound A299]	nM	219

P: O=C(Nc1nc([C@H]2CC[C@@H](c3ccccc3)C2)cs1)c1cccn1Cc1ccncc1 (stereo in doubt) [Compound A305]
Q: CC(C)(C)c1cc(NC(=O)c2cccn2Cc2ccncc2)no1 [Compound B4]
R: O=C(Nc1nc([C@H]2CCCN2c2ccc3c(c2)OCO3)cs1)c1cccn1Cc1ccncc1 [Compound A359]
S: O=C(Nc1nc([C@H]2CCN2c2ccccc2)cs1)c1cccn1Cc1ccncc1 [Compound A336]
Given 4 molecules, produce a descending ranking by IC50. # the answer lists labels in the order requested
Q, P, S, R
(Q: 22500 nM, P: 657 nM, S: 334 nM, R: 15 nM)

---

- System: human multiple myeloma cell line U266B1
- assay name: U266 Cell Viability Assay
- Assay type: cell-based
- condition info: U-266, 48 h, read-out: 48 hr U266 Viability Celltiter-Glo: Mean EC50
- Protocol: Cells were plated in 384-well tissue culture plates and treated with compound dilutions in DMSO/media. Plates were incubated at 37° C., 5% CO2 for 48 hours. After 48 hours, Celltiter-Glo® (Promega) was added to each well and luciferase signal was quantified using Tecan Infinite M1000 Pro for cell viability determination. For chemical structures that include one or more stereoisomers, but are illustrated without indicating stereochemistry, the assay data refers to a mixture of stereoisomers.
pEC50: −log10 of the molar value.
quantity measured: pEC50

# count of solved cases: 2
structure notation	system under test	pEC50
CC(C)(C)c1csc(NC(=O)c2cc3cc(Cl)ccc3n2Cc2ccncc2)n1	human multiple myeloma cell line U266B1	< 4.60
O=C(Nc1nc(C2=CCN(Cc3ccccc3)CC2)cs1)c1cccn1Cc1ccncc1	human multiple myeloma cell line U266B1	< 4.60

Now take the following molecule into account.
Need pEC50 of `CCc1nc(NC(=O)c2cc3cc(Cl)ccc3n2Cc2ccncc2)sc1C` , thanks.
< 4.60

---

- Test system: IL-2-FL/Gaussia Luciferase
- assay name: Dox Induced IL2-FL-Gluc Assay
- Type: cell-based
- condition info: 24 hr doxycycline induction, 293FRT/TO cells, Gaussia luciferase signal; read-out: 24 hr Dox Inducible IL2FLGIuc 293FRT/TO: Mean IC50
pIC50: −log10 of the molar value.
quantity measured: pIC50

Example compounds with recorded pIC50:
structure notation	quantity measured	value observed
CCc1csc(NC(=O)c2cccn2Cc2ccncc2)n1	pIC50	5.64
CC(C)OC(C)(C)c1csc(NC(=O)c2cccn2Cc2ccncc2Br)n1	pIC50	5.70

P: COc1ccccc1/C=C/c1csc(NC(=O)c2cccn2Cc2ccncc2)n1
Q: CC(C)OC(C)(C)c1csc(NC(=O)c2cccn2Cc2ccncc2C(F)(F)F)n1
Of P and Q , which shows the smaller pIC50 value? Lab log: write the label of the selected item as the result.
Q
(Q: 5.19, P: 5.83)

---

- Test system: IL-2-FL/Gaussia Luciferase
- assay name: Dox Induced IL2-FL-Gluc Assay
- Type: cell-based
- condition info: 24 hr doxycycline induction, 293FRT/TO cells, Gaussia luciferase signal; read-out: 24 hr Dox Inducible IL2FLGIuc 293FRT/TO: Mean IC50
quantity measured: IC50 (µM)

Completed entries (count: 3):
compound	IC50, µM
CC(C)(COc1ccccc1)c1csc(NC(=O)c2cccn2Cc2ccncc2)n1 [Compound A228]	0.933
CC(C)OC(C)(C)c1csc(NC(=O)c2cccn2CCCc2ccccc2)n1 [Compound A64]	2.72
Cc1cnc(NC(=O)c2cccn2Cc2ccncc2)s1 [Compound A72]	22.4

P: O=C(Nc1nc2c(s1)CCCC2)c1cccn1Cc1ccncc1 [Compound A52]
Q: O=C(Nc1nc(C#Cc2ccccc2)cs1)c1cccn1Cc1ccncc1 [Compound A132]
Which item exceeds the other in IC50, P or Q ? # reply format: chosen label
P
(P: 1.95 µM, Q: 0.744 µM)

I: O=C(Nc1nc(/C=C/c2ccc(N3CCCCC3)cc2)cs1)c1cccn1Cc1ccncc1 [Compound A233]
II: CC(C)OC(C)(C)c1csc(NC(=O)c2cccn2CC2CCOCC2)n1 [Compound A71]
III: CC(C)OC(C)(C)c1csc(NC(=O)c2cccn2Cc2ccncc2)n1 [Compound A16]
Arrange the 3 compounds by rising IC50, starting with the smallest. The response must list the labels following the requested ordering.
III, I, II
(III: 0.266 µM, I: 0.633 µM, II: 3.54 µM)

A: O=C(Nc1nc(C2=CCC(c3ccccc3)CC2)cs1)c1cccn1Cc1ccncc1 (stereo not drawn) [Compound A249]
B: CC(C)OC(C)(C)c1csc(NC(=O)c2cccn2Cc2ccncc2F)n1 [Compound A25]
C: CCc1nc(NC(=O)c2cccn2Cc2ccncc2Cl)sc1C [Compound A66]
Please give the order of these compounds when sorted by IC50, largest value leading. Lab note: record answer as labels in requested order.
C, A, B
(C: 4.78 µM, A: 0.881 µM, B: 0.49 µM)
